# reported pEC50; entries follow
target: NL20 human bronchial epithelial cells expressing human Z-AAT (Homo sapiens, UniProt P01009, E366K); construct: doxycycline added with compounds); experiment: AAT Function Assay (MSD Assay NL20-SI Cell Line); conditions: read-out: NL20 Functional EC50
Sequence (P01009 25-418 E366K): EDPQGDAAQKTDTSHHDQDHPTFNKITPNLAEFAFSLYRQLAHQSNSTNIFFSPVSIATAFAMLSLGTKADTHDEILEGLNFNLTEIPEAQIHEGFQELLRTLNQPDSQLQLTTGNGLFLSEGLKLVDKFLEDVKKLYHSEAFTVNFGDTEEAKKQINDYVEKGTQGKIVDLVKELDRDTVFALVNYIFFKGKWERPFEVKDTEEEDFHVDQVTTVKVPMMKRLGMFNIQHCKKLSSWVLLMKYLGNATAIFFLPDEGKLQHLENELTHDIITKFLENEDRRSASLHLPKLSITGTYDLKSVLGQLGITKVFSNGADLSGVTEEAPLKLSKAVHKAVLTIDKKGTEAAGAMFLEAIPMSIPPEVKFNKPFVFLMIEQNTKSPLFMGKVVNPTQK
pEC50: −log10 of the molar value.

input: Could you please provide reported pEC50 for `Cc1cc(-n2c(C(C)(C)CO)c(-c3ccc(C(=O)O)cc3)c3c(O)cc(Cl)cc32)ccc1F` ? Thanks!
output: > 6.30

input: Could you please provide reported pEC50 for `O=C(O)c1ccc(-c2c(C3CCOCC3)n(-c3ccc(F)cc3)c3cccc(O)c23)c(F)c1` ? Thanks!
output: 5.70 to 6.30

input: Could you please provide reported pEC50 for `O=C(O)c1cccc(-c2c(C3CCOCC3)n(-c3ccc(F)cc3)c3ccc(F)c(O)c23)c1` ? Thanks!
output: > 6.30

input: Could you please provide reported pEC50 for `COCC1(c2c(-c3ccc(C(=O)O)cc3)c3c(O)c(F)c(F)cc3n2-c2ccc(F)c(C)c2)COC1` ? Thanks!
output: 5.70 to 6.30

input: Could you please provide reported pEC50 for `NS(=O)(=O)c1ccc(-c2c(C3CCOCC3)n(-c3ccc(F)c(F)c3)c3cc(F)cc(O)c23)cc1` ? Thanks!
output: 5.70 to 6.30

input: Could you please provide reported pEC50 for CC(C)c1c(C2CC3(CC(C(=O)O)C3)C2)c2ccc(F)cc2n1-c1ccc(F)cc1 (stereo not drawn) ? Thanks!
output: < 5.70

---
input: Could you please provide reported pEC50 for `COCC(C)(C)c1c(-c2ccc(C(=O)O)cc2)c2c(O)cc(C)cc2n1-c1ccc(F)cc1` ? Thanks!
output: 5.70 to 6.30

input: Could you please provide reported pEC50 for `Cc1cc(-n2c(C(C)(C)CC#N)c(-c3ccc(C(=O)O)cc3)c3c(O)cccc32)ccc1F` ? Thanks!
output: > 6.30

input: Could you please provide reported pEC50 for Cc1cc(-n2c(C(C)C)c(C3CC(C)(C(=O)O)C3)c3c(O)cccc32)ccc1F (stereo not drawn) [Compound 57] ? Thanks!
output: < 5.70

input: Could you please provide reported pEC50 for `CC(C)(CC#N)c1c(-c2ccc(C(=O)O)c(F)c2)c2c(O)cc(Cl)cc2n1-c1ccc(F)c(F)c1` ? Thanks!
output: > 6.30

input: Could you please provide reported pEC50 for `[2H]C([2H])([2H])Oc1cc(-c2c(C3(COC)CCC3)n(-c3ccc(F)c(OC)c3)c3cc(F)cc(O)c23)ccc1C(=O)O` ? Thanks!
output: > 6.30

###

biological target: NL20 human bronchial epithelial cells expressing human Z-AAT (Homo sapiens, UniProt P01009, E366K); construct: doxycycline added with compounds); test: AAT Function Assay (MSD Assay NL20-SI Cell Line); conditions: read-out: NL20 Functional EC50
pEC50: −log10 of the molar value.
# reported pEC50; entries follow

Answered cases to consult:
input: Could you please provide reported pEC50 for Cc1ncc(-c2c(C3CCOCC3)n(-c3ccc(F)cc3)c3cccc(O)c23)cc1C(=O)O [Compound 70] ? Thanks!
output: < 5.70

input: Could you please provide reported pEC50 for Cc1cc(-n2c(C3CCCOC3)c(-c3ccc(C(=O)O)cc3)c3c(O)cc(F)cc32)ccc1F (centres unmarked) [Compound 310] ? Thanks!
output: 5.70 to 6.30

input: Could you please provide reported pEC50 for CC1CC(c2c(-c3ccc(C(=O)O)cc3)c3c(O)cc(F)cc3n2-c2ccc(F)c(F)c2)CC(C)O1 (centres unmarked) [Compound 259] ? Thanks!
output: > 6.30

input: Could you please provide reported pEC50 for CC(O)C(C)(C)c1c(-c2ccc(C(=O)O)cc2)c2c(O)cccc2n1-c1ccc(F)cc1 (racemic) [Compound 119] ? Thanks!
output: 5.70 to 6.30

input: Could you please provide reported pEC50 for O=C(O)c1c(F)cc(-c2c(C3CCOCC3)n(-c3ccc(F)cc3)c3cccc(O)c23)cc1F [Compound 80] ? Thanks!
output: < 5.70

input: Could you please provide reported pEC50 for O=C(O)c1ccc(-c2c(C3CCOCC3)n(-c3ccc(F)cc3)c3ccc(F)c(O)c23)cc1F [Compound 100] ? Thanks!
output: > 6.30

---
input: Could you please provide reported pEC50 for Cc1cc(-n2c(C3(CC#N)CCC3)c(-c3ccc(C(=O)O)c(F)c3F)c3c(O)cc(F)cc32)ccc1F [Compound 461] ? Thanks!
output: > 6.30

input: Could you please provide reported pEC50 for COc1cc(-n2c(C34CCC(O)(CC3)C4)c(-c3ccc(C(=O)O)c(OC)c3)c3c(O)cc(F)cc32)ccc1F [Compound 522] ? Thanks!
output: < 5.70

input: Could you please provide reported pEC50 for O=C(O)c1ccc(-c2c(C3CCOCC3)n(-c3ccc(F)c(F)c3)c3ccc(F)c(O)c23)c(F)c1 [Compound 6] ? Thanks!
output: > 6.30

input: Could you please provide reported pEC50 for Cc1cc(-n2c(C(C)(C)CC#N)c(-c3cc(F)c(C(=O)O)s3)c3c(O)cc(F)cc32)ccc1F [Compound 362] ? Thanks!
output: > 6.30

input: Could you please provide reported pEC50 for COCC1(c2c(-c3ccc(C(=O)O)cc3)c3c(O)cc(F)cc3n2-c2ccc(F)c(OC)c2)CCC1 [Compound 406] ? Thanks!
output: > 6.30

input: Could you please provide reported pEC50 for CC1(c2c(-c3ccc(C(=O)O)cc3)c3c(O)c(F)ccc3n2-c2ccc(F)c(F)c2)CC(C#N)C1 (centres unmarked) [Compound 278] ? Thanks!
output: 5.70 to 6.30

input: Could you please provide reported pEC50 for COC1CC(C)(c2c(-c3ccc(C(=O)O)cc3)c3c(O)cccc3n2-c2ccc(F)c(C)c2)C1 (centres unmarked) [Compound 186] ? Thanks!
output: > 6.30

###

target: NL20 human bronchial epithelial cells expressing human Z-AAT (Homo sapiens, UniProt P01009, E366K); construct: doxycycline added with compounds); assay: AAT Function Assay (MSD Assay NL20-SI Cell Line); conditions: read-out: NL20 Functional EC50
result_type: EC50

Answered cases to consult:
input: Could you please provide reported EC50 for CC1(c2c(-c3ccc(C(=O)O)cc3)c3c(O)cc(F)cc3n2-c2ccc(F)c(F)c2)CCCOC1 (stereo not shown) ? Thanks!
output: < 500 nM

input: Could you please provide reported EC50 for `CC(=O)NS(=O)(=O)c1ccc(-c2c(C3CCOCC3)n(-c3ccc(F)c(F)c3)c3cc(F)cc(O)c23)cc1` ? Thanks!
output: 500 to 2000 nM

input: Could you please provide reported EC50 for `COCC1(c2c(-c3cnc(C(=O)O)c(Cl)c3)c3c(O)cc(Cl)cc3n2-c2ccc(F)c(OC)c2)CCC1` ? Thanks!
output: 500 to 2000 nM

input: Could you please provide reported EC50 for `N#Cc1ccc2c(c1O)c(-c1ccc(C(=O)O)cc1)c(C1CCOCC1)n2-c1ccc(F)cc1` ? Thanks!
output: > 2000 nM

input: Could you please provide reported EC50 for N#CC1CC(c2c(-c3ccc(C(=O)O)cc3)c3c(O)cc(F)cc3n2-c2ccc(F)c(F)c2)C1 (stereo not shown) ? Thanks!
output: 500 to 2000 nM

---
input: Could you please provide reported EC50 for `COCC(C)(C)c1c(-c2ccc(C(=O)O)c(OC)c2)c2ccc(F)cc2n1-c1ccc(F)c(OC)c1` ? Thanks!
output: 500 to 2000 nM

input: Could you please provide reported EC50 for `CC(C)(CCS(C)(=O)=O)c1c(-c2ccc(C(=O)O)cc2)c2c(O)cccc2n1-c1ccc(F)cc1` ? Thanks!
output: > 2000 nM

###

target: NL20 human bronchial epithelial cells expressing human Z-AAT (Homo sapiens, UniProt P01009, E366K); construct: doxycycline added with compounds); experiment: AAT Function Assay (MSD Assay NL20-SI Cell Line); details: read-out: NL20 Functional EC50
pEC50: −log10 of the molar value.
# reported pEC50; entries follow

input: Could you please provide reported pEC50 for `CC(C)(CC(N)=O)c1c(-c2ccc(C(=O)O)cc2)c2c(O)cccc2n1-c1ccc(F)cc1` ? Thanks!
output: < 5.70

input: Could you please provide reported pEC50 for `CC(C)Oc1cc(-n2c(C(C)(C)CC#N)c(-c3ccc(C(=O)O)cc3)c3c(O)cc(F)cc32)ccc1F` ? Thanks!
output: 5.70 to 6.30

input: Could you please provide reported pEC50 for `CC(C)(CC#N)c1c(-c2ccc(C(=O)O)cc2)c2c(N)cc(F)cc2n1-c1ccc(F)c(F)c1` ? Thanks!
output: > 6.30

input: Could you please provide reported pEC50 for `O=C(O)c1cc(-c2c(C3CCOCC3)n(-c3ccc(F)cc3)c3cccc(O)c23)cc(C(F)(F)F)n1` ? Thanks!
output: < 5.70
